The measured values listed here are drawn from PubChem BioAssay (NCI).

# System: HCT-116 colon
# test summary: NCI tumour cell line growth inhibition, 48 h; in the data active = GI50 below about 0.43 µM; inactive = the rest
Respond with a class label; see YES = active, NO = inactive

Call for entry `CCOC(=O)c1c(C)n2c(=O)cc(C)c3c(OC(C)=O)c(OC(C)=O)cc1c32` :
NO

Tell me the recorded outcome of this test for `C=C1C(=O)O[C@@H]2C[C@@H]1CC[C@@]1(C)O[C@@H]1CC[C@@]1(C)O[C@@H]1CC[C@@]2(C)O` .
NO

Which outcome did this test record for the compound `COC(=O)Nc1nc2cc3c(cc2s1)OCCO3` ?
NO

Hey, what did the test say about NCC1OC(OC2C(CO)OC(OC3C(O)C(N)CC(N)C3OC3OC(CO)C(O)C(O)C3N)C2O)C(N)C(O)C1O (stereo unspecified) ?
NO

What is the recorded call for this compound in the test? `c1ccc(-c2nn(-c3ccccc3)[n+](-c3cccc4ccccc34)n2)cc1`
NO

Given `CCCCN(CCCC)CCCN=c1nc2c(c(N)n1-c1ccccc1)c(=S)n(-c1ccccc1)c(=S)n2-c1ccccc1` , state the outcome it received in this test.
YES

Which result was noted for this compound in the test: `COc1ccc(-c2cc(/C=C3\C(=O)Nc4ccc(OC)cc43)[nH]n2)cc1`
NO

What outcome does the record of this test show for `Clc1ccc(-c2nn3ncccc3c2-c2ccnc(Nc3ccccc3)n2)cc1` ?
NO

Just curious, what result did `N#CN1CCC[C@H]1C(=O)N1CCc2c(-c3[nH]nc4ncccc34)cccc21` get here?
YES

Kindly provide the recorded test outcome for the following compound: `COc1ccc(Cc2cnc(NC(=O)c3sc4ccccc4c3Cl)s2)cc1`
YES

Short answer needed: outcome of this test for `Cc1nc(/N=C(\N)NC(=O)Nc2ccccc2Cl)sc1C` ?
YES

----------
I'd be grateful if you could share measured TGI for these entries.
# System: SR leukemia
# test summary: NCI tumour cell line growth inhibition, 48 h
Where a SMILES comes first, the peptide text is derived from it. [ ]: non-standard residue; d: D form. The star is where a group is joined. ξ: configuration not given here. NMeF = CN[C@@H](Cc1ccccc1)C(=O)O; ξNMeV = CNC(C(=O)O)C(C)C; Boc = CC(C)(C)OC(=O)*; OBn = c1ccc(CO*)cc1

Reported TGI of `O=C(/C=C(\Nc1ccccc1O)c1ccccc1)C(=O)NC12CC3CC(CC(C3)C1)C2` : > 10 µM

Input CC(C)C(C(=O)N1CCC[C@@H]1C(=O)OCc1ccccc1)N(C)C(=O)C(C(C)C)N(C)C(=O)[C@H](Cc1ccccc1)N(C)C(=O)[C@H](NC(=O)OC(C)(C)C)C(C)C (stereo partly specified) (Boc-[dV][NMeF][ξNMeV][ξNMeV][dP]-OBn) . Output TGI: > 100 µM

Per the records, this compound ( `COc1cc([C@@H]2c3cc4c(cc3[C@H](O)[C@H]3COC(=O)[C@H]23)OCO4)cc(OC)c1OC` ) has TGI equal to < 0.005 µM

Given item C=C1CCC2C3(C)COC(c4ccc(SC)cc4)OC3CCC2(C)C1C/C=C1/C(=O)OCC1O (stereo unspecified) , the value recorded as its TGI is 8.04 µM

Sure, the documented TGI for COc1ccc2c(c1)nc1n2C(c2c(F)cccc2Cl)SC1 (stereo unspecified) is > 36.4 µM

Kindly note the recorded TGI for COC(=O)C(Cc1ccccc1I)C1=CCC2(CC1)OCCO2 (stereo unspecified) , which is 52 µM

Form field TGI, entry COc1cccc(NC(=O)CC(=O)N2NC(C)C(N=Nc3cccc(C(=O)O)c3)C2=O)c1 (stereo unspecified) : > 100 µM

Per the records, this compound ( `Nc1nc(NNc2ccc(Cl)c(Cl)c2)cc(=O)[nH]1` ) has TGI equal to > 100 µM

Per the record, `CCOC(=O)c1c(C)n2c(=O)cc(C)c3c(OC(C)=O)c(OC(C)=O)cc1c32` has TGI of > 32.2 µM

// recorded TGI for `COc1ccc(/C=C\c2cc(OC)c(OC)c(OC)c2)cc1OC(=O)c1cccc(Cn2cc(CCOC(=O)c3cccc(Cn4nnc5c4C(=O)c4ccccc4C5=O)c3)nn2)c1` : > 100 µM

The compound listed as CCN(CC)C(=S)SC1CCOP(=O)(N(CCCl)CCCl)N1C (stereo unspecified) has a reported TGI of 50 µM

----------
# Test system: MDA-MB-231 breast
# test summary: NCI tumour cell line growth inhibition, 48 h
measure: TGI (µM)
A number alone suffices; assume µM.

For this compound ( CC1=C([Se]CC(OC(=O)[C@@H](CO)NC(=O)OC(C)(C)C)C(=O)NC(C)(C)C)C(=O)c2ccccc2C1=O (stereo not given in full) ), measured TGI is 3.14

Record `COc1cc2c(cc1OC)C1(c3ccccc3)CN(C2)Cc2cc(OC)c(OC)cc21` . Reported TGI: 53.8

Looking up CCN(CC)CCCC(Nc1c2ccc(Cl)cc2nc2ccc(OC)cc12)c1ccc(F)cc1 (stereo not given) , I found its TGI recorded as 3.08

Field TGI (entry `CC(C)[Si](OC1=C(C(=O)N(C)c2ccccc2Cl)CCC1)(C(C)C)C(C)C` ) reads 30.9

Entry COc1ccc2c(c1)nc1n2C(c2c(F)cccc2Cl)SC1 (stereo not given) , TGI reported as 27.9

Reported TGI ( `CC(=O)O[C@H]1CC[C@@]2(C)C(=CC[C@@H]3[C@@H]2CC[C@]2(C)C(=N/O)/C(=C/c4ccc([N+](=O)[O-])cc4)C[C@@H]32)C1` ) = 50.1

The value of TGI measured for the compound `CCOC(=O)c1c(C)n2c(=O)cc(C)c3c(OC(C)=O)c(OC(C)=O)cc1c32` turned out to be 34.4

Sample `CN(C)CCCNc1nccc(-c2c(-c3ccc(F)cc3)nn3cc(C(F)(F)F)ccc23)n1` ; TGI observed: 11.1

Briefly, TGI measured for `Oc1cc(O)c2c(=S)cc(-c3ccc(Cl)cc3)oc2c1` : 6.54

----------
# Test system: A498 renal
# test summary: NCI tumour cell line growth inhibition, 48 h
measure: TGI

What the record says about `Cc1c[nH]c(C(=O)O)c1-c1ccc2c(-c3ccccc3)nc3ccccc3n12` : TGI is 28.3 µM

Briefly, TGI measured for `COC(=O)c1ccc([N+](=O)[O-])c(O)c1` : > 100 µM

Entry `N#CN1CCC[C@H]1C(=O)N1CCc2c(-c3[nH]nc4ncccc34)cccc21` , TGI reported as 0.148 µM

According to the records, this compound `COc1ccc(/C=N/NC(=O)NCCCN(C)C)cc1` displays TGI of > 100 µM

TGI reading for `CC[CH2][Sn]([Cl])([Cl])[CH2]CC` : 3.62 µM

Reported TGI for `O=c1cc(-c2ccccc2)oc2ccc(Oc3nnnn3-c3ccccc3)cc12` was > 100 µM

TGI in this record for `CC1=CCC[C@@H]2[C@@](C)(Cc3cc(O)ccc3O)[C@H](C)CC[C@@]12C` : 32.7 µM

For record C/C(=N/NC(=O)C(N)=O)C(CC(C(=O)Nc1ccccc1C)/C(C)=N\NC(=O)C(N)=O)C(=O)Nc1ccccc1C (stereo unspecified) the listed TGI is > 100 µM

Kindly note the recorded TGI for `Nc1ccccc1NC(=O)c1ccc(CN2CCC/C(=C\c3cccc(Cl)c3)C2=O)cc1` , which is 3.66 µM

Value of TGI reported for the compound CCOC(=O)C1=C(C)NC2SC(=O)/C(=C\c3ccccc3)N2C1c1ccccc1 (stereo unspecified) is > 100 µM

TGI reported for this compound `Cc1ccc2c(c1)[nH]c(=S)n2C=C1C(=O)CC(C)(C)CC1=O` : > 100 µM

Entry `COc1cc(C(N)=O)cc(NC(=O)/C=C/c2ccccc2)c1OC` — recorded TGI = > 100 µM

// TGI lookup, compound = `CC[C@@H](C(=O)[C@@H](C)[C@@H](O)[C@H](C)CCc1ccc(C)c(O)c1C(=O)O)[C@H]1O[C@](CC)([C@H]2CC[C@](O)(CC)[C@H](C)O2)C[C@@H]1C` , result: 2.37 µM

Short answer for `COc1ccc(/C=C/c2cc(N3CCOCC3)c3cc(F)c(F)cc3n2)cc1OC` : TGI was 4.63 µM

Lab book: TGI of `Cc1ccc2c(=O)c(-c3nnc(N)s3)c[nH]c2n1` noted as > 100 µM

// recorded TGI for `COc1ccc(-c2nn(-c3cccc(NC(=O)Nc4cc(C(F)(F)F)cc(C(F)(F)F)c4)c3)cc2-c2ccncc2)cc1Cl` : 3.17 µM
